# assayed.target: mouse melanocortin-3 receptor (mouse) (UniProt P33033)
# Sequence (P33033 whole entry): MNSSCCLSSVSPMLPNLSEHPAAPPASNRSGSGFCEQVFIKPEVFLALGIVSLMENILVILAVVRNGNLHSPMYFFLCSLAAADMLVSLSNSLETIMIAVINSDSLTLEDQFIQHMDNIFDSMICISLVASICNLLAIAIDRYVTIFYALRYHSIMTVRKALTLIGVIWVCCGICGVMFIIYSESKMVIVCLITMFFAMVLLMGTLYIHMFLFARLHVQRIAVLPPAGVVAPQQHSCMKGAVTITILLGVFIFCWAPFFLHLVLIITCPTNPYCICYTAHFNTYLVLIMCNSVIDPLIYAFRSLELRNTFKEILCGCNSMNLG
Square brackets hold non-standard residues; d marks the D form. dPhe(4-I) = N[C@H](Cc1ccc(I)cc1)C(=O)O
property: pA2, antagonism of NDP-MSH at mMC3R, Schild analysis, cAMP AlphaScreen
Answer with a number only.

Example binders with recorded pA2, antagonism of NDP-MSH at mMC3R, Schild analysis, cAMP AlphaScreen:
[[record]]
binder = "Ac-[dPhe(4-I)]RW[dK]-NH2 (SMILES CC(=O)N[C@H](Cc1ccc(I)cc1)C(=O)N[C@@H](CCCNC(=N)N)C(=O)N[C@@H](Cc1c[nH]c2ccccc12)C(=O)N[C@H](CCCCN)C(N)=O) [Ac-DPhe(pI)-Arg-Trp-DLys-NH2]"
quantitative_readout = 6.2

[[record]]
binder = "Ac-[dPhe(4-I)]R[dPhe(4-I)][dK]-NH2 (SMILES CC(=O)N[C@H](Cc1ccc(I)cc1)C(=O)N[C@@H](CCCNC(=N)N)C(=O)N[C@H](Cc1ccc(I)cc1)C(=O)N[C@H](CCCCN)C(N)=O) [Ac-DPhe(pI)-Arg-DPhe(pI)-DLys-NH2]"
quantitative_readout = 7.5

[[record]]
binder = "Ac-[dPhe(4-I)]RWR-NH2 (SMILES CC(=O)N[C@H](Cc1ccc(I)cc1)C(=O)N[C@@H](CCCNC(=N)N)C(=O)N[C@@H](Cc1c[nH]c2ccccc12)C(=O)N[C@@H](CCCNC(=N)N)C(N)=O) [Ac-DPhe(pI)-Arg-Trp-Arg-NH2]"
quantitative_readout = 7.4


[in] Field request: pA2, antagonism of NDP-MSH at mMC3R, Schild analysis, cAMP AlphaScreen | item: Ac-[dPhe(4-I)]R[dPhe(4-I)]R-NH2 (SMILES CC(=O)N[C@H](Cc1ccc(I)cc1)C(=O)N[C@@H](CCCNC(=N)N)C(=O)N[C@H](Cc1ccc(I)cc1)C(=O)N[C@@H](CCCNC(=N)N)C(N)=O) [Ac-DPhe(pI)-Arg-DPhe(pI)-Arg-NH2]
[out] 7.4
